Where do these numbers come from? They come from paper PMC10455239.

Record form. Attribute: IC50. Fill in for each entry.
test system: Salmonella enterica; assay: Antimicrobial activity, broth microdilution; type: cell-based; details: Salmonella enterica; Gram (−) strain; read-out: IC50 S. enterica

Look up IC50: CC1(C)[C@H]2[C@H]3[C@@H](CC[C@]3(C)O)[C@](C)(O)CC[C@H]21 [Compound 2, 1αH,5βH-aromandendrane-4β,10α-diol] > 256 µg/mL

What value of IC50 has been reported for the following molecule? CC(C)=CCC[C@H](C(=O)O)[C@@H]1CC[C@]2(C)C3=C(CC[C@@]12C)[C@@]1(C)CC[C@@H](O)C(C)(C)[C@@H]1CC3 [Compound 6] > 256 µg/mL

Returns the measured IC50 for the input molecule. Input: CC(C)=CCC/C(C)=C/Cc1c(O)c(CC=C(C)C)c(O)c2c(=O)c3cc(O)ccc3oc12 [Compound 8, cochinchinone A] > 256 µg/mL
